Protocol Text: activity coefficient (dimensionless); of the first substance listed, at infinite dilution; xn = mol fraction of the nth substance listed
Details: 348.15 K; 101 kPa; Liquid; Chromatography; x1 = 0
Please assign 0 (no) whenever activity coefficient is at or above 2, and 1 (yes) whenever it is below.

hey, is activity coefficient for O [water] + O=S(=O)([N-]S(=O)(=O)C(F)(F)F)C(F)(F)F.OCCC[n+]1ccccc1 lower than 2 or not? 1 (yes)

Decide: activity coefficient of C1CCCCCC1 [cycloheptane] + O=S(=O)([N-]S(=O)(=O)C(F)(F)F)C(F)(F)F.OCCC[n+]1ccccc1 strictly below 2? 0 (no)

API: query returns whether the compound falls strictly under 2 in activity coefficient. Query: CCO [ethanol] + O=S(=O)([N-]S(=O)(=O)C(F)(F)F)C(F)(F)F.OCCC[n+]1ccccc1 1 (yes)

A record lists C=CCCCCC [1-heptene] + O=S(=O)([N-]S(=O)(=O)C(F)(F)F)C(F)(F)F.OCCC[n+]1ccccc1 . Is its activity coefficient below 2? 0 (no)

Problem: For the compound Cc1ccccc1 [toluene] + O=S(=O)([N-]S(=O)(=O)C(F)(F)F)C(F)(F)F.OCCC[n+]1ccccc1 , is activity coefficient under 2? 0 (no)

Determine whether this compound shows activity coefficient lower than 2 (ties excluded): Cc1cccc(C)c1 [1,3-dimethylbenzene] + O=S(=O)([N-]S(=O)(=O)C(F)(F)F)C(F)(F)F.OCCC[n+]1ccccc1 0 (no)

Would you kindly verify if activity coefficient of CCOCC [diethyl ether] + O=S(=O)([N-]S(=O)(=O)C(F)(F)F)C(F)(F)F.OCCC[n+]1ccccc1 is strictly less than 2? 0 (no)

Report whether reported activity coefficient is lower than 2 (strictly) for CO [methanol] + O=S(=O)([N-]S(=O)(=O)C(F)(F)F)C(F)(F)F.OCCC[n+]1ccccc1 1 (yes)

Hi there! Is activity coefficient for CCC(C)CC [3-methylpentane] + O=S(=O)([N-]S(=O)(=O)C(F)(F)F)C(F)(F)F.OCCC[n+]1ccccc1 below 2, do you know? 0 (no)

Consider CCCCCCCC [octane] + O=S(=O)([N-]S(=O)(=O)C(F)(F)F)C(F)(F)F.OCCC[n+]1ccccc1 . Does its activity coefficient lie strictly below 2? 0 (no)

Lab note: confirm whether the reported activity coefficient for this compound is below 2, equality not counting. compound: CCCCCCCCCC [decane] + O=S(=O)([N-]S(=O)(=O)C(F)(F)F)C(F)(F)F.OCCC[n+]1ccccc1 0 (no)

Regarding CCCO [propan-1-ol] + O=S(=O)([N-]S(=O)(=O)C(F)(F)F)C(F)(F)F.OCCC[n+]1ccccc1 , kindly confirm whether its activity coefficient is beneath 2. 1 (yes)

# check: activity coefficient < 2 for C1CCCCCCC1 [cyclooctane] + O=S(=O)([N-]S(=O)(=O)C(F)(F)F)C(F)(F)F.OCCC[n+]1ccccc1 0 (no)

Please let me know if C=CCCCC [hex-1-ene] + O=S(=O)([N-]S(=O)(=O)C(F)(F)F)C(F)(F)F.OCCC[n+]1ccccc1 shows activity coefficient below 2. 0 (no)

Check if activity coefficient falls below 2 for CC(C)=O [acetone] + O=S(=O)([N-]S(=O)(=O)C(F)(F)F)C(F)(F)F.OCCC[n+]1ccccc1 . 1 (yes)

Item CCCCCCCCC [nonane] + O=S(=O)([N-]S(=O)(=O)C(F)(F)F)C(F)(F)F.OCCC[n+]1ccccc1 : activity coefficient beneath 2, strictly? 0 (no)

====

Protocol Text: activity coefficient (dimensionless); of the first substance listed, at infinite dilution; xn = mol fraction of the nth substance listed
Details: 338.15 K; 101 kPa; Liquid; Chromatography; x1 = 0
Respond with True for activity coefficient values of 30 and above, False for values below.

Does activity coefficient meet or surpass 30 for CCC(C)CC [3-methylpentane] + O=S(=O)([N-]S(=O)(=O)C(F)(F)F)C(F)(F)F.OCCC[n+]1ccccc1 ? True

Can CCCC(C)=O [pentan-2-one] + O=S(=O)([N-]S(=O)(=O)C(F)(F)F)C(F)(F)F.OCCC[n+]1ccccc1 be said to have activity coefficient at or above 30? False

Dear colleague, could you confirm whether C1=CCCCC1 [cyclohexene] + O=S(=O)([N-]S(=O)(=O)C(F)(F)F)C(F)(F)F.OCCC[n+]1ccccc1 has activity coefficient at or above 30? False

Can CCCCO [butan-1-ol] + O=S(=O)([N-]S(=O)(=O)C(F)(F)F)C(F)(F)F.OCCC[n+]1ccccc1 be said to have activity coefficient at or above 30? False

Say whether CCCCC [pentane] + O=S(=O)([N-]S(=O)(=O)C(F)(F)F)C(F)(F)F.OCCC[n+]1ccccc1 shows activity coefficient of 30 or more. False

Given C=CCCCCCCCC [1-decene] + O=S(=O)([N-]S(=O)(=O)C(F)(F)F)C(F)(F)F.OCCC[n+]1ccccc1 , state whether its activity coefficient is at least 30. True

Hi, just wondering whether CC(=O)O [acetic acid] + O=S(=O)([N-]S(=O)(=O)C(F)(F)F)C(F)(F)F.OCCC[n+]1ccccc1 shows activity coefficient of 30 or higher. False

====

Protocol Text: activity coefficient (dimensionless); of the first substance listed, at infinite dilution; xn = mol fraction of the nth substance listed
Details: 338.15 K; 101 kPa; Liquid; Chromatography; x1 = 0
Kindly state activity coefficient for each of the entries shown.
Answer as a number with no unit attached.

Look up activity coefficient: CCCCCCCC [octane] + O=S(=O)([N-]S(=O)(=O)C(F)(F)F)C(F)(F)F.OCCC[n+]1ccccc1 91.1

// returns reported activity coefficient for input CCc1ccccc1 [ethylbenzene] + O=S(=O)([N-]S(=O)(=O)C(F)(F)F)C(F)(F)F.OCCC[n+]1ccccc1 3.9

What activity coefficient value was documented for this compound, CCC(C)(C)OC [2-methoxy-2-methylbutane] + O=S(=O)([N-]S(=O)(=O)C(F)(F)F)C(F)(F)F.OCCC[n+]1ccccc1 ? 4.61

I am curious: what activity coefficient value has been reported for CCCCCCCCC [nonane] + O=S(=O)([N-]S(=O)(=O)C(F)(F)F)C(F)(F)F.OCCC[n+]1ccccc1 ? 139

activity coefficient lookup needed for Cc1ccccc1 [toluene] + O=S(=O)([N-]S(=O)(=O)C(F)(F)F)C(F)(F)F.OCCC[n+]1ccccc1 , thanks. 2.38

# get_value(readout='activity coefficient', item= C1CCCCC1 [cyclohexane] + O=S(=O)([N-]S(=O)(=O)C(F)(F)F)C(F)(F)F.OCCC[n+]1ccccc1 ) 19.4

# lookup: activity coefficient of CC(C)CC(C)(C)C [2,2,4-trimethylpentane] + O=S(=O)([N-]S(=O)(=O)C(F)(F)F)C(F)(F)F.OCCC[n+]1ccccc1 60.7

For the compound COC(C)(C)C [2-methoxy-2-methylpropane] + O=S(=O)([N-]S(=O)(=O)C(F)(F)F)C(F)(F)F.OCCC[n+]1ccccc1 , what activity coefficient is on record? 2.91

====

Protocol Text: activity coefficient (dimensionless); of the first substance listed, at infinite dilution; xn = mol fraction of the nth substance listed
Details: 308.15 K; 101 kPa; Liquid; Chromatography; x1 = 0
Assignment: determine reported activity coefficient for the given compounds.
# respond with the number and nothing more

Which activity coefficient is listed for C=CCCCC [hex-1-ene] + O=S(=O)([N-]S(=O)(=O)C(F)(F)F)C(F)(F)F.OCCC[n+]1ccccc1 ? 22.7

Reported activity coefficient, compound C#CCCCCCC [1-octyne] + O=S(=O)([N-]S(=O)(=O)C(F)(F)F)C(F)(F)F.OCCC[n+]1ccccc1 : ____ 16.2

Please look up its activity coefficient: C1CCCC1 [cyclopentane] + O=S(=O)([N-]S(=O)(=O)C(F)(F)F)C(F)(F)F.OCCC[n+]1ccccc1 15.8

Report activity coefficient for CCCCCC [hexane] + O=S(=O)([N-]S(=O)(=O)C(F)(F)F)C(F)(F)F.OCCC[n+]1ccccc1 please. 51.3

Which activity coefficient value is on record for CCCCC [pentane] + O=S(=O)([N-]S(=O)(=O)C(F)(F)F)C(F)(F)F.OCCC[n+]1ccccc1 ? 32.9

Suppose we examine the compound CCC(C)(C)OC [2-methoxy-2-methylbutane] + O=S(=O)([N-]S(=O)(=O)C(F)(F)F)C(F)(F)F.OCCC[n+]1ccccc1 ; what activity coefficient value has been reported? 4.37

activity coefficient lookup needed for C#CCCCC [1-hexyne] + O=S(=O)([N-]S(=O)(=O)C(F)(F)F)C(F)(F)F.OCCC[n+]1ccccc1 , thanks. 6.38

====

Protocol Text: activity coefficient (dimensionless); of the first substance listed, at infinite dilution; xn = mol fraction of the nth substance listed
Details: 368.15 K; 101 kPa; Liquid; Chromatography; x1 = 0
Kindly state activity coefficient for each of the entries shown.

// query activity coefficient value for entry C1CCOC1 [tetrahydrofuran] + O=S(=O)([N-]S(=O)(=O)C(F)(F)F)C(F)(F)F.OCCC[n+]1ccccc1 0.839

Which activity coefficient reading was recorded for the compound CC(=O)O [acetic acid] + O=S(=O)([N-]S(=O)(=O)C(F)(F)F)C(F)(F)F.OCCC[n+]1ccccc1 ? 0.367

I'd like to know its activity coefficient. The compound in question is CCCCO [butan-1-ol] + O=S(=O)([N-]S(=O)(=O)C(F)(F)F)C(F)(F)F.OCCC[n+]1ccccc1 1.73

GET /values?readout=activity coefficient&item= Cc1ccccc1 [toluene] + O=S(=O)([N-]S(=O)(=O)C(F)(F)F)C(F)(F)F.OCCC[n+]1ccccc1 2.41

Requested read-out: activity coefficient. Entry: CCC(=O)CC [pentan-3-one] + O=S(=O)([N-]S(=O)(=O)C(F)(F)F)C(F)(F)F.OCCC[n+]1ccccc1 1.07

Please report the recorded activity coefficient for CCOCC [diethyl ether] + O=S(=O)([N-]S(=O)(=O)C(F)(F)F)C(F)(F)F.OCCC[n+]1ccccc1 . 3.01

Using the record for C#CCCCCCC [1-octyne] + O=S(=O)([N-]S(=O)(=O)C(F)(F)F)C(F)(F)F.OCCC[n+]1ccccc1 , report its activity coefficient. 12.7
